This collection of values is drawn from PubChem BioAssay (NCI).

- System: TK-10 renal
- experimental_protocol: NCI-60 one-dose screen, 48 h (100 = growth as untreated, 0 = no growth, -100 = all killed)
- assay_setup: 10 µM unless noted
Compounds without any hit were thinned out: in the full panel of roughly 83,000, 20% have a hit.
value_kind: growth (%)

>>> measured_result("Cc1nc2ccccc2c(C(=O)O)c1O")
113
>>> measured_result("CC(C)(O)C#CC#CC(C)(C)O")
95.6
>>> measured_result("C=CCCCCCCCCCOC(C)=O")
91.5
>>> measured_result("CCOC(=O)c1[nH]c(C)c(C(C)=O)c1C")
98.4
>>> measured_result("N#CCc1ccc([N+](=O)[O-])cc1")
107
>>> measured_result("Cc1ccc(Cl)cc1NC(=O)N(C)CCO")
126
>>> measured_result("O=c1[nH]c(O)c(/C=C2/C=Nc3ccccc32)[nH]1")
99.9

###

- Tested on: KM12 colon
- experimental_protocol: NCI-60 one-dose screen, 48 h (100 = growth as untreated, 0 = no growth, -100 = all killed)
- assay_setup: 10 µM
Compounds without any hit were thinned out: in the full panel of roughly 83,000, 20% have a hit. Active and inactive are the calls of the source. How the source made its calls: active means growth percent below 10; inactive means the rest.
Each entry below carries its reported growth.
value_kind: growth

>>> measured_result("CCCCCCCCCCCCCC(=O)Oc1ccc[nH]c1=O")
"92.7% (inactive)"
>>> measured_result("CCOC(=O)C1=C(Nc2ccc(Br)cc2)C(=O)N(CC)C1")
"101% (inactive)"
>>> measured_result("CC(C)CCOC(=O)c1ccccc1")
"106% (inactive)"
>>> measured_result("COc1ccc(OC)c(/C=C2\\CCc3ccccc3C2=O)c1")
"22.8% (inactive)"
>>> measured_result("C=C1CC/C=C(\\C)C(=O)C[C@@H]2[C@@H]1CC2(C)C")
"109% (inactive)"
>>> measured_result("COCCCC/C(=N\\OCCN)c1ccc(C(F)(F)F)cc1")
"107% (inactive)"
>>> measured_result("CC(CN1CCCCC1)NC(=O)c1scnc1-c1ccccc1 (stereo not drawn)")
"106% (inactive)"
>>> measured_result("CC(=O)OCCO")
"108% (inactive)"
>>> measured_result("Oc1ccc(O)cc1")
"103% (inactive)"
>>> measured_result("CCOC(=O)C(=O)C=P(c1ccccc1)(c1ccccc1)c1ccccc1")
"99.6% (inactive)"
>>> measured_result("Nc1ccccc1C(=O)Nc1ccc(Cl)cc1Cl")
"91% (inactive)"
>>> measured_result("C=CCCCCCCCCCOC(C)=O")
"103% (inactive)"
>>> measured_result("CCCC[P+](c1ccccc1)(c1ccccc1)c1ccccc1")
"23.2% (inactive)"

###

# maps each entry to its growth
- Tested on: UACC-62 melanoma
- experimental_protocol: NCI-60 one-dose screen, 48 h (100 = growth as untreated, 0 = no growth, -100 = all killed)
- assay_setup: 10 µM unless noted
This is part of a sample that, as a whole, favours compounds with a hit. Of some 83,000 tested, about 20% had one in any assay.
value_kind: growth (%)

>>> measured_result("CCOc1ccccc1/C=N/Nc1nc2ccccc2o1")
82.6
>>> measured_result("Cc1ccc(C(O)C2CC2)cc1 (stereo not drawn)")
98.8
>>> measured_result("O=c1[nH]cc(Cl)cc1O")
40.5
>>> measured_result("FC(F)(F)c1ccc2c(c1)N(CCCN1CCN(C3CC3)CC1)c1ccccc1S2")
54
>>> measured_result("NCCC(=O)c1ccc(Cl)cc1")
112
>>> measured_result("CC1(O)CCCCC1O (stereo not drawn)")
96.5
>>> measured_result("COc1ccc(C(O)c2ccccc2)cc1 (stereo not drawn)")
95.3
>>> measured_result("O=c1[nH]n(-c2ccccc2)c(=O)cc1Cl")
87.3
>>> measured_result("CC12CC3CC1C(C(=O)O2)C3C(=O)O (stereo not drawn)")
98.3
>>> measured_result("C1CNC(C2=NCCN2)=N1")
104
>>> measured_result("COC(=O)C(C)Oc1ccc(OC#N)cc1 (stereo not drawn)")
86.8
>>> measured_result("CCOC(=O)c1[nH]c(C)c(C(=O)O)c1C")
107
>>> measured_result("O=C(Nc1ccccc1C(=O)NCC1CC1)c1cccs1")
98.4
>>> measured_result("C=CC[N+](C)(C)C")
102
>>> measured_result("c1ccc(Cc2ccccc2)cc1")
103
>>> measured_result("OCc1cccc2ccccc12")
112
>>> measured_result("CCCCCCCCCCC(C)Br (stereo not drawn)")
104
>>> measured_result("COc1cc2c(cc1OC)[C@H](C(=O)O)[C@@H](c1ccc(OC(C)C)c(OC)c1)N(C)C2=O")
89.6
>>> measured_result("COC(=O)c1ccc(C(C)C)cc1")
99.4
>>> measured_result("CC(=O)C1CCCCC1")
103
>>> measured_result("Cc1ccc(/C(C#N)=C/c2ccc3c(c2)OCO3)cc1")
73.5
>>> measured_result("COc1ccccc1NC(=O)C1=C(C)NC(C)=C(C(=O)Nc2ccccc2OC)C1c1cccc([N+](=O)[O-])c1")
54.5
>>> measured_result("Brc1cnc2ccccc2c1")
93.4
>>> measured_result("O=C(CC(=O)c1ccccc1O)c1ccccc1")
91
>>> measured_result("Cc1cc2nc(CC(=O)c3ccccc3)c(=O)[nH]c2cc1C")
74.9
>>> measured_result("Cc1cccc([N+](=O)[O-])c1Cl")
105
>>> measured_result("N#CCCc1ccc(O)cc1")
102
>>> measured_result("C[N+](C)(C)C(=O)c1ccccc1")
94
>>> measured_result("O=C1C=C(O)C(=O)C=C1O")
102
>>> measured_result("C=CC(O)CCC (stereo not drawn)")
95.9
>>> measured_result("Nc1ccc(NC(=O)c2cccc(N)c2)cc1")
96.5
>>> measured_result("COCCCC/C(=N\\OCCN)c1ccc(C(F)(F)F)cc1")
97.5
>>> measured_result("CC(=O)Nc1cccc(NC(C)=O)n1")
97.5
>>> measured_result("O=[N+]([O-])c1ccc(Cl)c(S(=O)(=O)O)c1")
105
>>> measured_result("CC1(C)Nc2cccc3c(N=Nc4ccc(N=Nc5ccccc5)c5ccccc45)ccc(c23)N1")
79.2
>>> measured_result("CCS(=O)(=O)CCCl")
85.1
>>> measured_result("Cc1ccc(S(=O)(=O)O)c(C)c1")
120
>>> measured_result("C=CCOC(=O)C(=O)OCC=C")
102
>>> measured_result("CCCCC(O)c1ccccc1 (stereo not drawn)")
108
>>> measured_result("CCC/C=C(\\C)C(C)(C#N)C(=O)OCC (stereo not drawn)")
102
>>> measured_result("Cc1ccc(N)cc1[N+](=O)[O-]")
105
>>> measured_result("Oc1ccc2c(c1)OCC1(O)Cc3cc(O)c(O)cc3C21 (stereo not drawn)")
91.5
>>> measured_result("CC(=O)c1ccc(N=C(C#N)C2=C(O)c3ccccc3C2=O)cc1")
109
>>> measured_result("C[C@]12CC[C@@H]3c4ccc(OCC(=O)O)cc4CC[C@H]3[C@@H]1CCC2=O")
96.5
>>> measured_result("COC(=O)/C=C/C(=O)NC(N)=O")
101
>>> measured_result("COc1ccc(C2OC(N)=C(O)C2=O)cc1OC (stereo not drawn)")
93.7
>>> measured_result("COc1cc2nn(-c3ccccc3N)nc2cc1OC")
103
>>> measured_result("CC1(C)S(=O)(=O)OCCOS1(=O)=O")
92.3
>>> measured_result("CC1CCCC(CC(N)=O)CC1 (stereo not drawn)")
104
>>> measured_result("CSc1[nH]c(=O)ncc1F")
92.8
>>> measured_result("O=c1cc(-c2ccccc2)[nH]c(=S)[nH]1")
106
>>> measured_result("CN(C)CCN(C)CC(C)(C)C(=O)/C=C/c1ccc(Cl)cc1")
-46.4
>>> measured_result("COC1=CC(=O)c2nc(Cl)ccc2C1=O")
17.4
>>> measured_result("Cc1cc(C)c(N)c(S(=O)(=O)O)c1")
93.1
>>> measured_result("CCOC(=O)c1cc2cccc(OC)c2oc1=O")
89.8
>>> measured_result("CC1CC(O)CC(C)(C)C1 (stereo not drawn)")
92.4
>>> measured_result("CC(=O)c1ccc2c(ccc3ccccc32)c1")
96.5
>>> measured_result("Cc1c(C(=O)O)c(=O)n(-c2ccccc2)n1C")
108

###

- System: SF-539 CNS
- experimental_protocol: NCI-60 one-dose screen, 48 h
- assay_setup: 10 µM
- Method: Cells are grown in 96 well plates and exposed to the test compound for 48 hours. Compounds are tested at a single concentration, which is 10^-5 M for most compounds. The reported endpoint is percent growth (GI% or GIPRCNT), where numbers from 0 - 100% represent growth inhibition, and numbers from -100% - 0 represent cell death. For example, a value of 40 represents 60% growth inhibition. A value of 0 means no net growth occurred over the course of the experiment. […]
Compounds without any hit were thinned out: in the full panel of roughly 83,000, 20% have a hit. The source made the active and inactive calls. Rule for the calls: active = growth percent below 10; inactive = the rest.
Possible outcomes: label 1 = active, label 0 = inactive

>>> classification("Nc1ccc(C(=O)c2ccc(N)c(Br)c2)cc1Br")
"label 1"
>>> classification("CC1(C(N)=O)CCC(C(=O)O)C1(C)C (stereo not drawn)")
"label 0"
>>> classification("CCOC(=O)C1=C(Nc2ccc(Br)cc2)C(=O)N(CC)C1")
"label 0"
>>> classification("N#C/C(=C\\c1cc(O)c(O)c(O)c1)C(N)=O")
"label 0"
>>> classification("COc1cc(CCN=Cc2ccccc2O)c([N+](=O)[O-])cc1OC")
"label 0"
>>> classification("CCNc1nc2c(cnn2C)c(=O)[nH]1")
"label 0"
>>> classification("c1ccc(/C(=N\\N=C(/c2ccccc2)c2cccs2)c2cccs2)cc1")
"label 0"
>>> classification("N/N=C(/Cc1ccccc1)NNC(N)=S")
"label 0"
>>> classification("O=C(O)c1cccc([N+](=O)[O-])c1")
"label 0"
>>> classification("CCOC(=O)C(O)C(O)C(=O)OCC (stereo not drawn)")
"label 0"
>>> classification("CC1SC(N)=NC1=O (stereo not drawn)")
"label 0"
>>> classification("C#CC(C)(O)c1ccc(Cl)cc1 (stereo not drawn)")
"label 0"
>>> classification("CCCNC(=O)c1ccc(S(N)(=O)=O)cc1")
"label 0"
